The origin of these recorded values is patent US20230263916A1.

Give measured positive rate for each item. Keep answers brief.
Molecular target: T1, Her2 on cells (BT474, high expression; MDA-MB-231, low expression) (UniProt P04626 23-1255, limits assumed)
T1 construct: whole, on cells; Endogenous Her2 of tumour cell lines
Experiment: flow cytometry on MDA-MB-231 cells (low Her2), anti-HA Alexa Fluor488; also: test concentration or dose not given here
The figure you give is taken to be in %; do not add the unit.

Tell me positive rate reported for Nanobody No. 13 (VHH, camel VHH from pMECs phage display vector; also called Antibody no; 13; not shown: tags (HA, His) implied by anti-HA detection and nickel column) VHH: QVQLQESGGGSVQAGETLRLSCTASGFTFDDSDMGWYRQAPGNECELVSTISADGSTFYADSVKGRFTISQDNAKNTVYLQMNSLKPEDTAVYYCASPENEYELGTCEALDYWGQGTQVTVSS
14.2

Identify the reported positive rate for the following entry. Nanobody No. 23 (VHH, camel VHH from pMECs phage display vector; also called Antibody no; 23; not shown: tags (HA, His) implied by anti-HA detection and nickel column) VHH: QVQLQESGGGSVQAGGSLKLSCSASGFTFDDTDMGWYRQAPGNECELVSTISSDGTTYYTDSVKGRFTISQDNAKNTVYLQMNSLKPEDTAVYYCAAINSGYELGTCESLDYWGRGTQVTVSS
11.5

// fetch positive rate given entry Nanobody No. 10 (VHH, camel VHH from pMECs phage display vector; also called Antibody no; 10; not shown: tags (HA, His) implied by anti-HA detection and nickel column) VHH: QVQLQESGGGSVQAGETLKLSCTASGFTFDDSTMAWYRQAPGNECKLVSTISSDGSTYYADSVKGRFTISQDNAKNTVYLQMNSLKPEDTAVYYCAADDQNYELGTCEALDYWGRGTQVTVSS
10.6

Please look at this binder and report its positive rate: Nanobody No. 17 (VHH, camel VHH from pMECs phage display vector; also called Antibody no; 17; not shown: tags (HA, His) implied by anti-HA detection and nickel column) VHH: QVQLQESGGGSVQAGGSLRLSCTASGFTFDDSDMGWYRQAPGNECELVSTISSDGSTYYADSVKGRFTISQDNAKNTVYLQMNSLKPEDTAVYYCADVQIPYGLGTCESLDYWGRGTQVTVSS
12.3

Give the measured positive rate for Nanobody No. 26 (VHH, camel VHH from pMECs phage display vector; also called Antibody no; 26; not shown: tags (HA, His) implied by anti-HA detection and nickel column) VHH: QVQLQESGGGSVQAGETLRLSCTASGFTFDDSDMGWYRQAPGNECELVSSISSDGSTYYADSVKGRFTISQDNAKNTVYLQMNSLKPEDTGVYYCAAEGHRYELGTCAALDYWGRGTQVTVSS
16.7

Look up positive rate of Nanobody No. 9 (VHH, camel VHH from pMECs phage display vector; also called Antibody no; not shown: tags (HA, His) implied by anti-HA detection and nickel column) VHH: QVQLQESGGGSVQAGETLRLSCTASGFTFDDSDMGWYRQAPGSECELVSTISSDGNTYYSNSVKGRFTISQDNAKNTVYLQMNSLKPEDTAVYYCAADDQHYELGTCEALDYWGRGTQVTVSS and report it.
9.5

Assign positive rate to the following record: Nanobody No. 22 (VHH, camel VHH from pMECs phage display vector; also called Antibody no; 22; not shown: tags (HA, His) implied by anti-HA detection and nickel column) VHH: QVQLQESGGGSVQAGGSLRLSCTASGFTFDDSDMGWYRQAPGNECELVSRISRDGTTYYADSVKGRFTISQDNAKNTVYLQMNSLKPEDTAVYYCADINSGYELGTCESLDYWGRGTQVTVSS
5.8
